protocolDetails: Comparative pharmacokinetics of rhein in rats after oral rhein, rhubarb or SHXXT (plasma, UPLC-MS/MS)
Format: in vivo, Sprague-Dawley rats
statedConditions: male, Sprague-Dawley, po; rhein in rat plasma; p.o.; rhein 11.9 mg/kg, rhubarb 5.2 g/kg or SHXXT 5 g/kg (each equivalent to rhein 11.9 mg/kg); n = 6, mean ± SD; read-out: T1/2 (elimination half-life)
recordedMetric: half-life (h)
The figure you give is taken to be in h; do not add the unit.

Give me measured half-life, please, for this compound: O=C(O)c1cc(O)c2c(c1)C(=O)c1cccc(O)c1C2=O
2.4

---

protocolDetails: Comparative pharmacokinetics of rhein in rats after oral rhein, rhubarb or SHXXT (plasma, UPLC-MS/MS)
Assay type: in vivo, Sprague-Dawley rats
statedConditions: male, Sprague-Dawley, po; rhein in rat plasma; rhein 11.9 mg/kg, rhubarb 5.2 g/kg or SHXXT 5 g/kg (each equivalent to rhein 11.9 mg/kg); n = 6, mean ± SD
recordedMetric: AUC (ng·h/mL)
The figure you give is taken to be in ng·h/mL; do not add the unit.

Give me measured AUC, please, for this compound: O=C(O)c1cc(O)c2c(c1)C(=O)c1cccc(O)c1C2=O [Rhein]
3130
